Give Tm shift for every item shown.
study system: Serine/threonine-protein kinase pim-2 (Homo sapiens) (UniProt Q9P1W9)
Sequence (Q9P1W9 whole entry, looked up): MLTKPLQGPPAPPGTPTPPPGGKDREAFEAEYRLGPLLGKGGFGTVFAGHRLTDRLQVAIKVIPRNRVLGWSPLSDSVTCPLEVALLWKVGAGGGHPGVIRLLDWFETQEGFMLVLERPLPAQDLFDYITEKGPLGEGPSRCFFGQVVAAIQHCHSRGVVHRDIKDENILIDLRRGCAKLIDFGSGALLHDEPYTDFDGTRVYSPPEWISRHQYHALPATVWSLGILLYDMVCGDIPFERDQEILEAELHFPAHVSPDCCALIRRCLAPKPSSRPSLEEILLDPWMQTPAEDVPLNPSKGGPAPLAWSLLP
assay info: PIM2 kinase ligand binding by thermal shift, biophysical, human, melting temperature shift (AID 505)
condition summary: Recombinant PIM2 thermal shift, Tm change; at 10 µM; buffer 10 mM HEPES; pH 7.5; NaCl 150 mM; with 50 µM L-Arg/L-Glu (1:1); stronger effect = higher value

| compound | study system | val |
| --- | --- | --- |
| O=C1NCc2c1c1c3ccccc3[nH]c1c1[nH]c3ccccc3c21 | Serine/threonine-protein kinase pim-2 (Homo sapiens) (UniProt Q9P1W9) | 5.2 Celsius |

// batch mode: one Tm shift value per listed entry
1. N=C(N)SCCCn1cc(C2=C(c3c[nH]c4ccccc34)C(=O)NC2=O)c2ccccc21
2. CN(C)CCCn1cc(C2=C(c3c[nH]c4ccccc34)C(=O)NC2=O)c2ccccc21
3. CC(C)[C@@H](CO)Nc1ccc2ncc(-c3cccc(C(F)(F)F)c3)n2n1
4. O=C1Nc2ccccc2/C1=C\c1c(Cl)[nH]c2ccccc12
5. CCC(CO)Nc1ccc2ncc(-c3cccc(OC(F)(F)F)c3)n2n1 (stereo not given)
6. CCC(CO)Nc1ccc2ncc(-c3ccc(O)cc3)n2n1 (stereo not given)
7. NCCCn1cc(C2=C(c3c[nH]c4ccccc34)C(=O)NC2=O)c2ccccc21
8. Cn1cc(C2=C(c3c4n(c5ccccc35)CCC(CN)C4)C(=O)NC2=O)c2ccccc21 (stereo not given)

## Output
5.64 Celsius
6.1 Celsius
4.39 Celsius
3.4 Celsius
5.92 Celsius
4.74 Celsius
5.63 Celsius
3.6 Celsius

## Input What value of Tm shift has been recorded for this entry: CCC(CO)Nc1ccc2ncc(-c3ccc(C(=O)O)cc3)n2n1 (stereo not given)
## Output 4.94 Celsius

----------
study system: Serine/threonine-protein kinase pim-2 (Homo sapiens)
assay info: PIM2 kinase ligand binding by thermal shift, biophysical, human, melting temperature shift (AID 505)
condition summary: Recombinant PIM2 thermal shift, Tm change; at 10 µM; buffer 10 mM HEPES; pH 7.5; NaCl 150 mM; with 50 µM L-Arg/L-Glu (1:1); stronger effect = higher value
Assignment: determine reported Tm shift for the given molecules.

| molecule | Tm shift |
| --- | --- |
| FC(F)(F)Oc1cccc(-c2cnc3ccc(NC4CCOCC4)nn23)c1 | 5.78 Celsius |
| CCC(CO)Nc1ccc2ncc(-c3cccc(C(C)=O)c3)n2n1 (stereo not given) | 4.59 Celsius |
| Oc1cc(O)c2c(c1)O[C@H](c1ccc(O)c(O)c1)[C@@H](O)C2 | 3.2 Celsius |
| CC(=O)c1cccc(-c2cnc3ccc(N[C@H](CO)C(C)C)nn23)c1 | 3.77 Celsius |
| O=c1cc(-c2ccc(O)c(O)c2)oc2cc(O)cc(O)c12 | 4.14 Celsius |
| COc1cc(/C=C/C(=O)CC(=O)/C=C/c2ccc(O)c(OC)c2)ccc1O | 4.3 Celsius |
| O=C1C(=O)C(c2ccc(O)cc2)Oc2cc(O)cc(O)c21 (stereo not given) | 5.62 Celsius |
| O=C1c2ccccc2-c2n[nH]c3cccc1c23 | 4.6 Celsius |
| O=C1Nc2ccc(I)cc2/C1=C/c1cc(Br)c(O)c(Br)c1 | 10.2 Celsius |

Continue with the molecule presented below.
## Input For the molecule CCn1cnc2c(Nc3cccc(Cl)c3)nc(N[C@@H]3CCCC[C@@H]3N)nc21 , what Tm shift is on record?
## Output 5.45 Celsius

Where do the numbers come from? From PubChem BioAssay AID505.
